target: Metabotropic glutamate receptor 7 (Rattus norvegicus); experiment: Negative allosteric modulation of rat mGlu7 receptor expressed in HEK cells co-expressing Galpha15 assessed as reduction in calcium mobilization incubated for 142 secs prior to glutamate addition for 120 secs followed by L-AP4 addition and measured after 40 secs by Fluo-4 AM dye based fluorescence assay; format: functional, cell-based; settings: read-out: IC50
Sequence (P35400 whole entry): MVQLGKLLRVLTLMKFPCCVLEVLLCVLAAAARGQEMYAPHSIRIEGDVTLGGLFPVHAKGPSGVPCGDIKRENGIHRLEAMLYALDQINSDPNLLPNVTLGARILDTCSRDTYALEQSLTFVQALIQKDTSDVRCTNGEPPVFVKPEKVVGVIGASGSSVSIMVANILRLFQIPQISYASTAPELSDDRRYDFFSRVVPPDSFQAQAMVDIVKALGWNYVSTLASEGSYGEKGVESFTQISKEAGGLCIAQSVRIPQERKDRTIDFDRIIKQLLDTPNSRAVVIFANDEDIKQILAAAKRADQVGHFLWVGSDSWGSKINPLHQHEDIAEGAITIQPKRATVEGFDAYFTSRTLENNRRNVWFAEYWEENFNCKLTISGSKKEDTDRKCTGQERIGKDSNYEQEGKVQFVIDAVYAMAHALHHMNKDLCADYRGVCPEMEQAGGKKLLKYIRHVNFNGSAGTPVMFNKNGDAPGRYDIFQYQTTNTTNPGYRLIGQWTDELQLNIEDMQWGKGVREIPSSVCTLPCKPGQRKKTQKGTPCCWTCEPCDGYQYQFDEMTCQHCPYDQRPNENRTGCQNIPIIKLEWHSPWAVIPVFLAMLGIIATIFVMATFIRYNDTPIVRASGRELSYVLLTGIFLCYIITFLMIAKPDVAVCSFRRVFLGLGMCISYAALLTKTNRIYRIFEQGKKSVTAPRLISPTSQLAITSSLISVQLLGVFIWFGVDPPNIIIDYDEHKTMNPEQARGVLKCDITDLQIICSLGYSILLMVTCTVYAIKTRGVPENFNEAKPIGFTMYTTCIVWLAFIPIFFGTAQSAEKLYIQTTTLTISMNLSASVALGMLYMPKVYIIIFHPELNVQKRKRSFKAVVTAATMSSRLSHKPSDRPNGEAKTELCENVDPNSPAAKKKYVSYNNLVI
observable: IC50

Query :: Observed IC50 on Metabotropic glutamate receptor 7 (Rattus norvegicus) for COc1ccc(-c2nnc(-c3cc(OC(F)(F)F)ccc3-c3cccnc3)o2)cc1OC , please.
Result :: > 30 µM

Query :: Moving on to COc1cc(F)c(-c2nnc(-c3cc(OC(F)(F)F)ccc3-n3cncn3)o2)cc1OC
Result :: ≥ 10 µM

Query :: What would you report for COc1ccc(-c2nnc(-c3cc(OC(F)(F)F)ccc3-n3cncn3)o2)cc1OC ?
Result :: 1.58 µM

Query :: Same thing, different compound: FC(F)(F)Oc1ccc(-n2cncn2)c(-c2nnc(-c3ccc4c(c3)OCO4)o2)c1
Result :: > 30 µM

Query :: How about this compound: COc1cc(-c2nnc(-c3cc(OC(F)(F)F)ccc3-n3cncn3)o2)ccc1OC1CCC1
Result :: 1.55 µM

Query :: What about COc1ccc(-c2nnc(-c3cc(OC(F)(F)F)ccc3-n3cncn3)o2)c(F)c1F ?
Result :: > 30 µM

Query :: Likewise for COc1ccc(-c2nnc(-c3cc(OC(F)(F)F)ccc3-c3ccnnc3)o2)cc1OC ?
Result :: ≥ 10 µM

Query :: # repeat for COc1ccc(-c2c[nH]c(-c3cc(OC(F)(F)F)ccc3-n3cncn3)n2)cc1OC
Result :: ≥ 10 µM

Query :: Note, next up: COc1ccc(-c2nnc(-c3cc(OC(F)(F)F)ccc3N3CCCCC3)o2)cc1OC
Result :: 5.86 µM
